molecular target: RSV protein G (recombinant G protein) (respiratory syncytial virus (RSV), strain not stated); test: SPR (Biacore), Fab on recombinant antigen
Measured attribute: Kd
Remember to put the unit after the number in your answer.

Q: State its Kd for this binder: Fab fragment of antibody clone 796 (Fab) VH: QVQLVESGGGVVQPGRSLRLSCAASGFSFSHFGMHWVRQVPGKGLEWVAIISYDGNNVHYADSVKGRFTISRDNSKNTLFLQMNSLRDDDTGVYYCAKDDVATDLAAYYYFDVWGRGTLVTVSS light: DIVMTQTPLSLSVTPGQPASISCRSSQSLLRSDGKTFLYWYLQKPGQSPQPLMYEVSSRFSGVPDRFSGSGSGADFTLNISRVETEDVGIYYCMQGLKIRRTFGPGTKVEIKRTVAAPSVFIFPPSDEQLKSGTASVVCLLNNFYPREAKVQWKVDNALQSGNSQESVTEQDSKDSTYSLSSTLTLSKADYEKHKVYACEVTHQGLSSPVTKSFNRGEC
Result: 0.48 nM
